protocol summary: Single-dose pharmacokinetics of T+Ai pellet implant (80 mg testosterone + 4 mg anastrozole, subcutaneous)
assay context: human, in vivo, sc, 80 mg, Measured serum testosterone, median, 1008 h post-dose

- smiles record: "C[C@]12CC[C@H]3[C@@H](CCC4=CC(=O)CC[C@@]43C)[C@@H]1CC[C@@H]2O"
  readout units: "ng/mL"
  concentration at 1008 h: 1.4

----------
protocol summary: Single-dose pharmacokinetics of T+Ai pellet implant (80 mg testosterone + 4 mg anastrozole, subcutaneous)
assay context: human, in vivo, sc, 80 mg, Measured serum testosterone, mean, 168 h post-dose

- smiles record: "C[C@]12CC[C@H]3[C@@H](CCC4=CC(=O)CC[C@@]43C)[C@@H]1CC[C@@H]2O"
  readout units: "ng/mL"
  concentration at 168 h: 1.53
